// provenance: patent US7414042B2

Parameter: IC50. Scope: all listed entries.
Tested on: BC-1 (breast)
Test: Cytotoxicity against cultured human cancer cells (SRB)
Type: cell-based
Settings: Homo sapiens, 72 h; three days incubation, SRB; read-out: ED50 BC-1
Method: The plates were incubated for three days. […] Dose response studies were performed to generate ED50 values.
Please give a number only; it is taken to be in µg/mL.

See these solved cases before continuing.
molecule="COC(=O)C[C@](O)(CCCC(C)(C)O)C(=O)O[C@@H]1C(OC)=C[C@]23CCCN2CCc2cc4c(cc2[C@H]13)OCO4 [Homoharringtonine]" system="BC-1 (breast)" recorded_number=0.03
molecule="CC[C@]1(O)C[C@@H]2CN(CCc3c([nH]c4ccccc34)[C@@](C(=O)OC)(c3cc4c(cc3OC)N(C)[C@H]3[C@@](O)(C(=O)OC)[C@H](OC(C)=O)[C@]5(CC)C=CCN6CC[C@]43[C@@H]65)C2)C1 [Vinbiastine, vinblastine]" system="BC-1 (breast)" recorded_number=0.06
molecule="CC(=O)O[C@H]1C(=O)[C@@]2(C)[C@H]([C@H](OC(=O)c3ccccc3)[C@]3(O)C[C@H](OC(=O)[C@H](O)[C@@H](NC(=O)c4ccccc4)c4ccccc4)C(C)=C1C3(C)C)[C@]1(OC(C)=O)CO[C@@H]1C[C@@H]2O [Taxol, paclitaxel]" system="BC-1 (breast)" recorded_number=0.02
molecule="Cc1c2ccncc2c(C)c2c1[nH]c1ccccc12 [Ellipticine]" system="BC-1 (breast)" recorded_number=0.2
molecule="CC[C@]1(O)C[C@H]2CN(CCc3c([nH]c4ccccc34)[C@@](C(=O)OC)(c3cc4c(cc3OC)N(C=O)[C@H]3[C@@](O)(C(=O)OC)[C@H](OC(C)=O)[C@]5(CC)C=CCN6CC[C@]43[C@@H]65)C2)C1 [Vincristine]" system="BC-1 (breast)" recorded_number=0.01

Next molecule, please.
Ask: Notebook: pull reported IC50 for BC-1 (breast), entry CC[C@@]1(O)C(=O)OCc2c1cc1n(c2=O)Cc2cc3ccccc3nc2-1 [Camptothecin]
Result: 0.07

====

System: U373 (glioma)
Assay: Cytotoxicity against cultured human cancer cells (SRB)
Type: cell-based
Details: Homo sapiens, U373 MG, 72 h; three days incubation, SRB; read-out: ED50 U373
Procedure: The plates were incubated for three days. […] Dose response studies were performed to generate ED50 values.
IC50 vs 0.06 µg/mL: less than gives Met; not less than gives Not met.

Example entries and their recorded answers appear below.
compound=COC(=O)C[C@](O)(CCCC(C)(C)O)C(=O)O[C@@H]1C(OC)=C[C@]23CCCN2CCc2cc4c(cc2[C@H]13)OCO4 system="U373 (glioma)" label_class="Not met"
compound=CC(=O)O[C@H]1C(=O)[C@@]2(C)[C@H]([C@H](OC(=O)c3ccccc3)[C@]3(O)C[C@H](OC(=O)[C@H](O)[C@@H](NC(=O)c4ccccc4)c4ccccc4)C(C)=C1C3(C)C)[C@]1(OC(C)=O)CO[C@@H]1C[C@@H]2O system="U373 (glioma)" label_class=Met

Ask: API: query returns whether the compound falls strictly under 0.06 µg/mL in IC50. Query: C=C(C)[C@@H]1CC[C@]2(C(=O)O)CC[C@]3(C)[C@H](CC[C@@H]4[C@@]5(C)CC[C@H](O)C(C)(C)[C@@H]5CC[C@]43C)[C@@H]12 [Compound 10, 3β-hydroxy-lup-20(29)-ene-28-oic acid]
Result: Not met

Ask: For this compound, is IC50 lower than 0.06 µg/mL? Cc1c2ccncc2c(C)c2c1[nH]c1ccccc12
Result: Not met

Ask: Please indicate whether the reported IC50 of CC[C@]1(O)C[C@@H]2CN(CCc3c([nH]c4ccccc34)[C@@](C(=O)OC)(c3cc4c(cc3OC)N(C)[C@H]3[C@@](O)(C(=O)OC)[C@H](OC(C)=O)[C@]5(CC)C=CCN6CC[C@]43[C@@H]65)C2)C1 is strictly below 0.06 µg/mL.
Result: Not met

====

Let's look at some molecules and their measured ED50 (Std. Dev.) MEL-2.
Tested on: MEL-2 (melanoma)
Assay: Cytotoxicity against cultured human melanoma cells (SRB)
Type: cell-based
Conditions: derivatives, Tables 2-6

molecule="C=C(C)C1CCC2(C=NO)CCC3(C)C(CCC4C5(C)CCC(=NO)C(C)(C)C5CCC43C)C12 (stereo not drawn) [Compound 4]" endpoint_label="ED50 (Std. Dev.) MEL-2" result="2.2 (0.7) μg/mL"
molecule="CON=C1CCC2(C)C(CCC3(C)C2CCC2C4C(C(C)C)CCC4(C(=O)O)CCC23C)C1(C)C (stereo not drawn) [Compound 5]" endpoint_label="ED50 (Std. Dev.) MEL-2" result=">20 µg/mL"
molecule="C=C(C)[C@@H]1CC[C@]2(C(=O)O)CC[C@]3(C)[C@H](CC[C@@H]4[C@@]5(C)CCC(=O)C(C)(C)[C@@H]5CC[C@]43C)[C@@H]12 [Compound 8, Betulonic acid]" endpoint_label="ED50 (Std. Dev.) MEL-2" result="0.9 (0.8) μg/mL"
molecule="C=C(C)[C@@H]1CC[C@]2(C)CC[C@]3(C)[C@H](CC[C@@H]4[C@@]5(C)CC[C@H](OC(=O)c6ccccc6)C(C)(C)[C@@H]5CC[C@]43C)[C@@H]12 [Compound 16, Lupeol benzoate]" endpoint_label="ED50 (Std. Dev.) MEL-2" result=">20 µg/mL"
molecule="CC(C)C1CCC2(C(=O)O)CCC3(C)C(CCC4C5(C)CCC(=NO)C(C)(C)C5CCC43C)C12 (stereo not drawn) [Compound 7]" endpoint_label="ED50 (Std. Dev.) MEL-2" result="2.2 (0.3) μg/mL"

Ask: Record C=C(C)[C@@H]1CC[C@]2(C)CC[C@]3(C)[C@H](CC[C@@H]4[C@@]5(C)CC[C@H](O)C(C)(C)[C@@H]5CC[C@]43C)[C@@H]12 [Compound 15, Lupeol] : what is its ED50 (Std. Dev.) MEL-2 with MEL-2 (melanoma)?
Result: 17.6 µg/mL

Ask: Return ED50 (Std. Dev.) MEL-2 measured with MEL-2 (melanoma) given this molecule: CC(C)[C@@H]1CC[C@]2(C(=O)O)CC[C@]3(C)C(CCC4[C@@]5(C)CC[C@H](O)C(C)(C)C5CC[C@]43C)C12 (stereo partly drawn) [Compound 11, Dihydrobetulinic acid]
Result: 5.8 µg/mL

Ask: Could you share what ED50 (Std. Dev.) MEL-2 was measured for C=C(C)C1CCC2(C(=O)O)CCC3(C)C(CCC4C5(C)CCC(=NOC)C(C)(C)C5CCC43C)C12 (stereo not drawn) [Compound 13] , tested on MEL-2 (melanoma)?
Result: 8.3 µg/mL

Ask: Report ED50 (Std. Dev.) MEL-2 for CC(C)[C@@H]1CC[C@]2(C(=O)O)CC[C@]3(C)[C@H](CC[C@@H]4[C@@]5(C)CCC(=O)C(C)(C)[C@@H]5CC[C@]43C)[C@@H]12 [Compound 6, Dihydrobetulonic acid] tested on MEL-2 (melanoma).
Result: 0.7 (0.6) μg/mL

====

human melanoma and nonmelanoma cancer cell lines cytotoxicity and selectivity compared with betulinic acid or the corresponding analog data
Endpoint Label: cytotoxicity and selectivity compared with betulinic acid or the corresponding analog

molecule="CON=C1CCC2(C)C(CCC3(C)C2CCC2C4C(C(C)C)CCC4(C(=O)O)CCC23C)C1(C)C (stereo not shown)" result="less active"
molecule="CC(C)[C@@H]1CC[C@]2(C(=O)O)CC[C@]3(C)C(CCC4[C@@]5(C)CC[C@H](O)C(C)(C)C5CC[C@]43C)C12 (stereo partly shown) [Compound 11, Dihydrobetulinic acid]" result="less active"

====

Measured IC50, listed per entry.
Test system: LNCaP (prostate)
Assay: Cytotoxicity against cultured human cancer cells (SRB)
Format: cell-based
Settings: Homo sapiens, LNCaP, 72 h; three days incubation, SRB; read-out: ED50 LNCaP
Numeric answer only, unit µg/mL assumed.

Ask: Reported IC50 for CC[C@@]1(O)C(=O)OCc2c1cc1n(c2=O)Cc2cc3ccccc3nc2-1 [Camptothecin] : what is it?
Result: 0.006

====

System: MEL-2 (melanoma)
Assay: Cytotoxicity against cultured human melanoma cells (SRB)
Format: cell-based
Settings: derivatives, Tables 2-6
Endpoint Label: ED50 (Std. Dev.) MEL-2

Worked cases, answers included:
compound="C=C(C)C1CCC2(C=NOC)CCC3(C)C(CCC4C5(C)CCC(=NOC)C(C)(C)C5CCC43C)C12 (centres unmarked) [Compound 3]" system="MEL-2 (melanoma)" result=">20 µg/mL"
compound="C=C(C)[C@@H]1CC[C@]2(C(=O)O)CC[C@]3(C)[C@H](CC[C@@H]4[C@@]5(C)CC[C@H](O)C(C)(C)[C@@H]5CC[C@]43C)[C@@H]12 [Compound 10, 3β-hydroxy-lup-20(29)-ene-28-oic acid]" system="MEL-2 (melanoma)" result="1.2 (0.1) μg/mL"
compound="C=C(C)C1CCC2(C=O)CCC3(C)C(CCC4C5(C)CCC(=O)C(C)(C)C5CCC43C)C12 (centres unmarked) [Compound 1]" system="MEL-2 (melanoma)" result="7.4 (2.4) μg/mL"
compound="C=C(C)[C@@H]1CC[C@]2(C(=O)OC)CC[C@]3(C)[C@H](CC[C@@H]4[C@@]5(C)CC[C@H](O)C(C)(C)[C@@H]5CC[C@]43C)[C@@H]12 [Compound 14, Methyl betulinate]" system="MEL-2 (melanoma)" result="8.3 µg/mL"

Here is the next item to consider.
Ask: Entry C=C(C)[C@@H]1CC[C@]2(CO)CC[C@]3(C)[C@H](CC[C@@H]4[C@@]5(C)CC[C@H](O)C(C)(C)[C@@H]5CC[C@]43C)[C@@H]12 [Compound 12, lup-20(29)-ene-3β,28-diol] has what ED50 (Std. Dev.) MEL-2?
Result: >20 µg/mL
